- ASSAY DETAILS: RAM pathway blockade in budding yeast – dse1pr::URA3 reporter, 5-FOA selection, pilot screen (AID 869);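 also: 0% = DMSO wells with no growth and 100% = 10 µM 1-NA-PP1 with full growth; RAM network block rescues cells from 5-FOA so hits raise OD615 growth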
- MEASUREMENT PARAMETERS: S. cerevisiae dse1pr::URA3 5-FOA growth, OD615, 2 d; at 10 µM; hits give high values; strain carries analog-sensitive mutant Cbk1 kinase
Please go through the items and note down their inhibition.
One number for each entry, in %.

Look over these answered cases.
In [3]: df
Out[3]:
                                   compound   parameter  measure_unit  data_value
0  O=C1C2C3C=CC(C3)C2C(=O)N1c1cccc(N2C(=O)C3C4C=CC(C4)C3C2=O)n1 (centres undefined)  inhibition             %        3.84
1  COc1ccc(C(=O)Oc2c(CN3CCOCC3)cc(Cl)c3cccnc23)cc1OC  inhibition             %        1.39
2  O=C1C(Cl)=C(NCC2CCCO2)C(=O)N1C1CCCCC1 (centres undefined)  inhibition             %        1.46
3           O=c1c2c3c(sc2nc2n1CCCCC2)CCCCC3  inhibition             %        1.92
4  CCN1CCN(Cc2nc3c(c(=O)n(C)c(=O)n3C)n2CC(=O)c2ccccc2)CC1  inhibition             %        1.33

Need inhibition for each of these compounds.
1. O=C(O)c1cccnc1SC1CC(=O)N(c2cccc(C(F)(F)F)c2)C1=O (centres undefined)
2. CCN(CC)c1ccc(NC(=O)c2nc3nc(C)cc(C(F)F)n3n2)cc1
3. COCCCNC(=O)c1ccc(CS(=O)(=O)c2ccc(OC)cc2)o1

[1.56, 0.83, 0.405]

For each entry beneath this line, provide reported inhibition.
1. Oc1cccc(C=NCc2ccccc2)c1O
2. CCOC(=O)C1CCCN(C(=O)c2cn(C)c(=O)c3cc(OC)c(OC)cc23)C1 (centres undefined)
3. CCC(=O)c1cc(F)c(N2CCN(C(=O)c3ccco3)CC2)cc1C
4. CCC(=O)N1CCN(c2nc(-c3ccccc3)c3c(c2C#N)CCCC3)CC1
5. CCC(C)(NC(=O)CNC(C)=O)C(=O)NC1CCCCC1 (centres undefined)
6. COc1ccc(S(=O)(=O)N(C)C2CCN(C)CC2)cc1

1: -0.21; 2: 1.17; 3: 1.4; 4: 0.35; 5: 2.88; 6: 0.835

Kindly give each listed record's inhibition.
1. COc1ccc2[nH]c(C)c(CCN3C(=O)OC(C)(C)C3(C)O)c2c1 (centres undefined)
2. Cn1c(=O)c2c(nc(CN3CCN(CCO)CC3)n2Cc2ccccc2Cl)n(C)c1=O
3. COc1cccc(C(c2sc3ncnn3c2O)N2CCN(C(=O)c3ccco3)CC2)c1 (centres undefined)
4. Cc1cccc(-n2ncc3c(N(CCO)CCO)ncnc32)c1

1: 1.92; 2: 0.875; 3: 0.91; 4: 2.43

For each entry beneath this line, provide reported inhibition.
1. COc1cccc(N2CCN(c3c4c(nc5ncnn35)CCC4)CC2)c1
2. CCOc1cccc(NC(=O)c2ccc(S(=O)(=O)N(C)C)cc2)c1
3. COc1ccc(OC)c(C2C(C(N)=O)=C(C)Nc3nc(CCCO)nn32)c1 (centres undefined)
4. C=CCSc1nc(N)c2c(C)c(C)sc2n1
5. CCOC(=O)C(C(=O)Nc1ccccc1)C1CCCCC1 (centres undefined)
6. O=C(COc1ccc(F)cc1)Nc1ccc(-n2cnnn2)cc1
7. O=C(NCCN1CCOCC1)c1ccc2c(c1)N(Cc1ccccc1F)C(=O)CS2
8. Cc1cc(NC(=O)CSc2nc3c(c(=O)n2Cc2ccccc2)SC(C)C3)no1 (centres undefined)

[0.465, 0.83, 1.61, 0.34, -0.18, 0.61, 1.9, 2.35]
